# MEASURED ON: PDGFRB (Homo sapiens)
# Construct: Kinases are expressed as either kinase domains or full length constructs; made in house
# Sequence (P09619 33-1106, species assumed): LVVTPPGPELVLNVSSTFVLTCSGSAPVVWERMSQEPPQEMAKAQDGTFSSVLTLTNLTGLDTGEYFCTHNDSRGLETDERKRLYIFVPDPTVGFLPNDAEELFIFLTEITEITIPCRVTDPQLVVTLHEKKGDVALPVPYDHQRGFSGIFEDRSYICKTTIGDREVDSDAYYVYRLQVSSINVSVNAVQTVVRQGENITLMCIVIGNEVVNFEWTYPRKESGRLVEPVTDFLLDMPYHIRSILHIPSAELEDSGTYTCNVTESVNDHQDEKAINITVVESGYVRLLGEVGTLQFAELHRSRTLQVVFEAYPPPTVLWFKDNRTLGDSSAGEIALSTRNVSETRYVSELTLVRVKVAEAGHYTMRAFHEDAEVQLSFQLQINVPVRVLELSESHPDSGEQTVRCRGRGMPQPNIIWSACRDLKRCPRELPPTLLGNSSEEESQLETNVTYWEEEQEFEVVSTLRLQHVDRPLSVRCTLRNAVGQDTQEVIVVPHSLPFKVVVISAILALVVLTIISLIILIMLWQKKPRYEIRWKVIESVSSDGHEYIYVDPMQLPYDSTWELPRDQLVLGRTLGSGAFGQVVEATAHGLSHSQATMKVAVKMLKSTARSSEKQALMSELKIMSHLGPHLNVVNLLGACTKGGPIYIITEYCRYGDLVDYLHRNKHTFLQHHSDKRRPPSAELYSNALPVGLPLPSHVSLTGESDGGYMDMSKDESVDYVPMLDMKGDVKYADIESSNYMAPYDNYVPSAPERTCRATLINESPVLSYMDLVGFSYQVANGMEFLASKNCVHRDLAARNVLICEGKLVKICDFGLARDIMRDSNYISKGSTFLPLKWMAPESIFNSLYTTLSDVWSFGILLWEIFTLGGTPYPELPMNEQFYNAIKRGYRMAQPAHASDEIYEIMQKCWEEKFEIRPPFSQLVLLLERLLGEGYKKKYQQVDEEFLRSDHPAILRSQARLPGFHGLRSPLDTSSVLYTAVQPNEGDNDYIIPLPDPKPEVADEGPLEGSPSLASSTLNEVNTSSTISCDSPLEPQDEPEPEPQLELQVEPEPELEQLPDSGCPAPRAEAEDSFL
# ASSAY SUMMARY: Kinase inhibition assay (33P transfer), PDGFRB
# Type: biochemical
# EXPERIMENTAL PARAMETERS: read-out: PDGFRB-1
PROPERTY: IC50

// solved cases for IC50 follow
STRUCTURE SMILES	PROPERTY	RESULT VALUE
c1ccc(CNc2ncnc(Nc3cc(-c4ccco4)n[nH]3)n2)nc1	IC50	1.2 to 7.18 µM
Cc1cccc(Nc2ncnc(N(C)c3cccc(Br)c3)n2)c1	IC50	9.45 to 12.2 µM
CC(=O)NS(=O)(=O)c1ccc(Nc2ncnc(N(C)c3cccc(Cl)c3)n2)cc1	IC50	0.924 to 5.54 µM
N#CCc1ccc(Nc2ncnc(Nc3ccc4c(cnn4Cc4ccccc4)c3)n2)cc1	IC50	0.925 to 5.55 µM
CN(c1cccc(Cl)c1)c1ncnc(Nc2ccc3c(cnn3C)c2)n1	IC50	1.09 to 6.56 µM
COc1ccc(CCNc2ncnc(Nc3cc(-c4ccco4)[nH]n3)n2)cc1OC	IC50	0.982 to 5.89 µM

CN(c1cccc(Cl)c1)c1ncnc(Nc2cccc(CNC(=O)O[C@@H]3CCOC3)c2)n1 yielded IC50 of 0.879 to 5.28 µM

Nc1nc2ccccc2n1-c1ncnc(Nc2cccc(Cn3ccnn3)c2)n1 yielded IC50 of 9.1 to 11.7 µM

COC(=O)c1ccc(-c2cc(Nc3ncnc(Nc4ccc(CO)cc4)n3)[nH]n2)cc1 yielded IC50 of > 10.8 µM

* * *

As an illustration, consider measured pIC50 for compounds on ErbB2 (Homo sapiens).
Sequence (P04626 23-1255, species assumed): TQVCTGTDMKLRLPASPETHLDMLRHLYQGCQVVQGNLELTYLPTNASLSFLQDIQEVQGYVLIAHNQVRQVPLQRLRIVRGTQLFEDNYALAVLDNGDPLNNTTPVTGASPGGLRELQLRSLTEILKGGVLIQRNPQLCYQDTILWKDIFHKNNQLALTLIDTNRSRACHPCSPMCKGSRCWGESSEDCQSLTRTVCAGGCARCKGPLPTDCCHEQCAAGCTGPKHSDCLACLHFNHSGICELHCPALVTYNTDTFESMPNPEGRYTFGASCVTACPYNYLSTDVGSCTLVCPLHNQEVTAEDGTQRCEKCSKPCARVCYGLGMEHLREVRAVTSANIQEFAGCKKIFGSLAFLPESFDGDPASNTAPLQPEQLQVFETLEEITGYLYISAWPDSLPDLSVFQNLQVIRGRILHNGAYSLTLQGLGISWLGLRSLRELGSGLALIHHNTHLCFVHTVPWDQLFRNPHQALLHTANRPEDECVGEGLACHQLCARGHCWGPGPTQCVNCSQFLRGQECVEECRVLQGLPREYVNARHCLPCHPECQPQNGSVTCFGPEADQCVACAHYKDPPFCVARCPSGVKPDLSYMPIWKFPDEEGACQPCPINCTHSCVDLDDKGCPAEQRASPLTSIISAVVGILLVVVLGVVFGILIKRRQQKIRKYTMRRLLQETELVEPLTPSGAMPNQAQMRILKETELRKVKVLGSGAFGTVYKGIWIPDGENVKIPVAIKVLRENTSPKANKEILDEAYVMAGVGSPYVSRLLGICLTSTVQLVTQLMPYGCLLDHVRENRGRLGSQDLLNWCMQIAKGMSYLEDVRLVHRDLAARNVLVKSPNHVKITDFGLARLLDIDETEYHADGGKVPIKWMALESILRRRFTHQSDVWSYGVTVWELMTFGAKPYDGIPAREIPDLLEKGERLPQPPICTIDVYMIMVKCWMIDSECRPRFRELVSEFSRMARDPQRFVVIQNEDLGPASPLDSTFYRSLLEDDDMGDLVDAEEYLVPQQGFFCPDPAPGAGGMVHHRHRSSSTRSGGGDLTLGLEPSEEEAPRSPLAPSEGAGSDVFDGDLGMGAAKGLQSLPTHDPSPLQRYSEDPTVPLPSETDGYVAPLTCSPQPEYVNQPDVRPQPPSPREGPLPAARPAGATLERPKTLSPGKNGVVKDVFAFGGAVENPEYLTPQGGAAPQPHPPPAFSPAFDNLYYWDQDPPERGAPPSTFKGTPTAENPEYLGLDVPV
pIC50: −log10 of the molar value.

STRUCTURE SMILES	pIC50
COc1cc(Nc2ncnc(Nc3cc(-c4cccc(C(F)(F)F)c4)n[nH]3)n2)cc(OC)c1OC	5.14 to 5.31
COc1ccc(Nc2ncnc(NCc3cccc(Cl)c3)n2)cc1OC	5.03 to 5.19
CN(c1cccc(Cl)c1)c1ncnc(NCCOCCO)n1	< 4.86
COc1cccc(Nc2ncccc2-c2ncnc(Nc3cc(OC)c(OC)c(OC)c3)n2)c1	5.28 to 6.06

pIC50 value, target or system ErbB2 (Homo sapiens), for COc1cc(Nc2ncnc(N(CCO)c3ccccc3)n2)cc(OC)c1OC : 5.06 to 5.22

* * *

pIC50 values, listed per item
# MEASURED ON: Kdr (Homo sapiens)
# Construct: Kinases are expressed as either kinase domains or full length constructs; made in house
# Sequence (P35968 20-1356, species assumed): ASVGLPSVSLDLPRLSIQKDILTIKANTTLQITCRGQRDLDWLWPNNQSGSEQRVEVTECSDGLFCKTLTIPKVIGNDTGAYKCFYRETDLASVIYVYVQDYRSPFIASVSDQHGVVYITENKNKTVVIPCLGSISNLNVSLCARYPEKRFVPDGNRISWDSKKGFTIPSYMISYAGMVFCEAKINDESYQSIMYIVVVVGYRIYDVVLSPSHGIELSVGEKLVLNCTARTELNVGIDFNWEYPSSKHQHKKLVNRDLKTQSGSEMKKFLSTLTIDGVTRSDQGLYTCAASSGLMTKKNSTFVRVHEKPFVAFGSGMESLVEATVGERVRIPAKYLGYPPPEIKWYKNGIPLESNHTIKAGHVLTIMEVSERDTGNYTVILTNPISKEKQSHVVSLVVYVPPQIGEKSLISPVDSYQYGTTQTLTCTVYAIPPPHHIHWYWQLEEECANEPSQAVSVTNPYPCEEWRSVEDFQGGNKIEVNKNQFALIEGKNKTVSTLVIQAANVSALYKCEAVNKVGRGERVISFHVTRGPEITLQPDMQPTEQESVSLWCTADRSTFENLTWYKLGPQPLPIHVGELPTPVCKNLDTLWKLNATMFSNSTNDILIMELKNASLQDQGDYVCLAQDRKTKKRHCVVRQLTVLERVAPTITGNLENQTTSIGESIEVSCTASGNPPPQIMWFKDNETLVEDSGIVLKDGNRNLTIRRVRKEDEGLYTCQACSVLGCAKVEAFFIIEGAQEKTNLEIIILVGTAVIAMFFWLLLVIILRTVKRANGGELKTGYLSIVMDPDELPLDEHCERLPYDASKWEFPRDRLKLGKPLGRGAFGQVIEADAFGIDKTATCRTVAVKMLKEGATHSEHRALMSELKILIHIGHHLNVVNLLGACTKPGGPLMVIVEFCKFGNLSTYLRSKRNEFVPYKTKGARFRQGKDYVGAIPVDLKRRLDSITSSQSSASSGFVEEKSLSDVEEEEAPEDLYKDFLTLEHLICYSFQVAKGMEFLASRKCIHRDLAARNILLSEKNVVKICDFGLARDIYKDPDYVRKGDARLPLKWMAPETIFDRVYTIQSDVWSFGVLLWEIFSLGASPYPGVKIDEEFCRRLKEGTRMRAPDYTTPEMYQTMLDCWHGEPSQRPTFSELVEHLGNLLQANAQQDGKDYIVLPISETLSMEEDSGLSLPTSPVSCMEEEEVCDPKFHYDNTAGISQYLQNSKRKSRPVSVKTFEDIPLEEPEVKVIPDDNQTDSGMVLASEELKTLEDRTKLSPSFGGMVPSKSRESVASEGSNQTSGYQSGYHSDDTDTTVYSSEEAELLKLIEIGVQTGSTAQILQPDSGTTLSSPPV
# ASSAY SUMMARY: Kinase inhibition assay (33P transfer), Kdr
# Format: biochemical
# EXPERIMENTAL PARAMETERS: read-out: KDR-1
pIC50: −log10 of the molar value.

// solved cases for pIC50 follow
MOLECULE	pIC50
COc1cc(Nc2ncnc(-n3c(NC4CCc5ccccc54)nc4ccccc43)n2)cc(OC)c1OC (centres unmarked)	5.33 to 6.11
COc1cc(Nc2ncnc(N[C@@H]3CCCc4ccccc43)n2)cc(OC)c1OC	4.96 to 5.07

COc1ccc(CNc2nc3ccccc3n2-c2ncnc(Nc3cccc(Cc4nnn[nH]4)c3)n2)cc1 yielded pIC50 of > 6.10

COc1cc(Nc2ncnc(-n3c(NC(C)c4ccc(F)cc4)nc4ccccc43)n2)cc(OC)c1OC (centres unmarked) yielded pIC50 of > 6.11
